The reported measurements were obtained from ChEMBL document CHEMBL4888484.

System: Plasmodium falciparum
measurement-protocol: Primary screen in NF54 nanoGlo assay, in single point, at 2uM, 72h
Assay type: functional, Erythrocyte
condition-parameters: timepoint 72 hour
In all, about 150,000 compounds went through this assay and about 540 (0.36%) showed an effect of 50% or more. For the sample, strong results were picked, then their nearest neighbours and some compounds at random.
Please respond with reported % Inhibition for every item in the list.
Numbers only, in %.

These recorded examples may help you get a feel for the data.
Given the entry `O=C(CCN1C(=O)CCC1=O)Nc1cccc(S(=O)(=O)N2CCCCC2)c1` , report its measured % Inhibition.
-4

Tell me the measured % Inhibition of `O=C(NCC[C@H]1CCOC1)c1ccc(-c2ccc3cc[nH]c(=O)c3c2)cc1` , please.
-14

Can you look up the measured % Inhibition of `CN1CCCC[C@@H]1CNC(=O)c1ccc2nc(-c3ccc(F)cc3)cn2c1` for me?
-5

Need % Inhibition of `CC1(C)CN(Cc2nnc(C3CC3)o2)CCN1Cc1ccccc1` , thanks.
-3

Recorded % Inhibition of Cc1ccccc1C(=O)N1C(C(=O)NC(C)c2ccccc2)COC12CCN(C(=O)CC(C)(C)C)CC2 (stereo not given) , please.
-5

// each listed molecule needs a value for % Inhibition
1. CN1CCC[C@@H]1CCNC(=O)c1ccc2nc(-c3ccc(F)cc3)cn2c1
2. COc1ccc(N(Cc2c(C)noc2C)Cc2c(C)noc2C)cc1
3. CCCC(O)(CCC)CC(=O)N1CCN(C(=O)OCC)CC1

1: 8; 2: -5; 3: -7

Provide the reported % Inhibition of each entry below, same order.
1. O=C(NCCN1CCCC1)c1ccc2nc(-c3ccc(Cl)cc3)cn2c1
2. Cc1nn(C2CCCC2)c2nc(-c3cccs3)[nH]c12

[75, -10]
